Attribution: BindingDB's records for doi:10.1002/cbic.200800600

molecular target: Epidermal growth factor receptor (Homo sapiens)
Sequence (P00533 whole entry): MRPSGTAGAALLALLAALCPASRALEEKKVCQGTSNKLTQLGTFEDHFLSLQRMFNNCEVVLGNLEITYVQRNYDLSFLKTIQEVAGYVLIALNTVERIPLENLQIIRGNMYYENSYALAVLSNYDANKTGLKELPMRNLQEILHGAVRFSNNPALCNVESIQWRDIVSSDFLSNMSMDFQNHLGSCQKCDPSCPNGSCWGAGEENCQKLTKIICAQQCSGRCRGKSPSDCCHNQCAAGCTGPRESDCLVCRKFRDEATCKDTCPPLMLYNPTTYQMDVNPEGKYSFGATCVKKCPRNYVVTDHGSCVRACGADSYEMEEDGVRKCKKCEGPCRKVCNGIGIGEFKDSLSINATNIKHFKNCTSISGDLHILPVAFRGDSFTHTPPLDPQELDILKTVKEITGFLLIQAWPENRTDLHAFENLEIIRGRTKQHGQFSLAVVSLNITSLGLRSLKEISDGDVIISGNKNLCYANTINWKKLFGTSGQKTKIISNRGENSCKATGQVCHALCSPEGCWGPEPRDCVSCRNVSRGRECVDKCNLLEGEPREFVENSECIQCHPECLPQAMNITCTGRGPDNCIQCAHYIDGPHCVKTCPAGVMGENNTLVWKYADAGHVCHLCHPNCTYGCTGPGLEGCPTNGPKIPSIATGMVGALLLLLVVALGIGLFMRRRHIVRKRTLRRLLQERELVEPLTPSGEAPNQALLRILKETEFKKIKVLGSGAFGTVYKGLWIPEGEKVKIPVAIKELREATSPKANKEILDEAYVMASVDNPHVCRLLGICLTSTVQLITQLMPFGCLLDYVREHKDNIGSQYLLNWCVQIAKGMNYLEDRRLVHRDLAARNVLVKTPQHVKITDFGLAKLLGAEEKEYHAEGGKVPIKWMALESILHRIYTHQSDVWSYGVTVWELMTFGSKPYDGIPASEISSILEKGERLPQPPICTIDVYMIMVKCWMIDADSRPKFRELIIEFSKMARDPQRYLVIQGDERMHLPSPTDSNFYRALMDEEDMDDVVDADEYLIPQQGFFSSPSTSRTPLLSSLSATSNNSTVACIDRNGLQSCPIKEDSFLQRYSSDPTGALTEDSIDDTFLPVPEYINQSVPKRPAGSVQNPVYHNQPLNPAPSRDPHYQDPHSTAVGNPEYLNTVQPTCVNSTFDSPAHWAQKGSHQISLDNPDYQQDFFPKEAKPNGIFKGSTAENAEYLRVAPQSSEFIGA
pIC50: −log10 of the molar value.

>  <Compound>
CC(C)Nc1nc(-c2ccco2)nc2ccc(C#CCO)cc12 [TC-28]

>  <pIC50>
< 4.00

$$$$
